The measurements presented in this section are drawn from PubChem BioAssay (NCATS).

What activation was measured for each of the following?
Assay: qHTS Assay for Identification of Small Molecule Agonists for Hypoxia Response Element Signaling Pathway (AID 914); also: % of control where 0% means no effect
Conditions: ME-180 HRE-bla reporter, beta-lactamase ratio, CoCl2, 17 h; stronger effect = higher value
Records with an inconclusive call do not appear.
Answers are plain numbers, in %.

Here is how some compounds turned out for activation.
INSERT INTO assay_data (compound, observed_value) VALUES
  ('Cc1cccn2c(=O)c(/C=C(\C#N)S(=O)(=O)c3ccccc3)c(N3CCN(C)CC3)nc12', -11.6),
  ('Cc1ccc(-n2c(SCC(=O)NCc3ccco3)nc3nc4c(cc3c2=O)COC(C)(C)C4)cc1', -23.6),
  ('COc1ccc(C(=O)C2CCCCC2=O)cc1 (stereo not drawn)', 5.32);

# batch size: 7; output activation per entry
1. COC(=O)c1sc(NC(C)=O)c(C(=O)OC)c1C
2. CCCOC(=O)CSC1=C(C#N)C(c2ccc3c(c2)OCO3)CC(=O)N1 (stereo not drawn)
3. CCCCOC(=O)Nc1ccc(S(=O)(=O)Nc2nc(C)cc(C)n2)cc1
4. COCc1cc(C)nc(N)c1C#N
5. CC1=CC(c2ccccc2)n2nc(N3C(=O)C4CC=CCC4C3=O)nc2N1 (stereo not drawn)
6. N#CC1=C(N)OC2=C(C(=O)CCC2)[C@]12C(=O)N(CC(N)=O)c1ccccc12
7. CCOC(=O)c1sc2c(c1C)c(=O)c(C(=O)OCC)cn2CC

1: 21.1; 2: -15.4; 3: -6.31; 4: 1.6; 5: 6.95; 6: -22.1; 7: 16.2

# batch size: 3; output activation per entry
1. N#Cc1c(NC(=O)CCC(=O)O)sc2c1CCCC2
2. CCCOc1ccc(Cn2c(O)cc(=O)[nH]c2=O)cc1
3. O=C(NC1(C(F)(F)F)C(=O)Nc2c1c(=O)[nH]c(=O)n2Cc1ccco1)C1CCCCC1 (stereo not drawn)

1. -23.4
2. 16.1
3. -5.1

* * *

Assay: AP1 Signaling Pathway (AID 357);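 also: ME-180 reporter cells stimulated with EGF at its EC50 level; % is scaled to controls: 0 for no effect and ±100 for the full control effect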
Conditions: ME-180 (cervical carcinoma) AP-1-bla reporter, EGF-induced, beta-lactamase ratio, 5 h; at 17.2 µM (top of the series) unless noted
Results filed as inconclusive are left out. Activity calls are given as the source filed them. Calls come from the whole dose curve; as a rule, active = well fitted curve in either direction with a large enough effect (not every such curve was filed as active); inconclusive = small, poorly fitted or top-dose-only effect, or another doubt; inactive = flat fitted curve, though single readings scatter.
measure: activity change, negative = inhibition

Here is how some compounds turned out for activity change, negative = inhibition.
INSERT INTO assay_data (compound, observed_value) VALUES
  ('COc1ccc(N/C(=N\c2nc(C)cc(C)n2)NC(=O)C(C)C)cc1OC', '-12.4% (inactive)'),
  ('Nc1nnnn1/N=C/c1cccc(Oc2ccccc2)c1', '-4.47% (inactive)'),
  ('CCc1cc(=O)oc2c(CN3CCN(C)CC3)c(O)c(Cl)cc12', '12.5% (inactive)'),
  ('Cc1c(O)c(CN2CCCC(C)C2)cc2c3c(c(=O)oc12)CCC3 (centres undefined)', '13.2% (inactive)'),
  ('O=C1c2ccccc2C(=O)N1CC1c2ccccc2CCN1C(=O)N1CCOCC1 (centres undefined)', '-3.7% (inactive)'),
  ('CC(=O)Oc1oc(-c2ccccc2)nc1/C=N/c1ccccn1', '-71.1% (inactive)');

# batch size: 3; output activity change, negative = inhibition per entry
1. O=C1CCC(=O)N1CN(Cc1ccco1)CN1C(=O)CCC1=O
2. COc1ccc(/C(O)=C2/C(=O)C(=O)N(c3nc(C)c(C)s3)C2c2ccco2)cc1 (centres undefined)
3. O=C(O)[C@@H]1CCCN[C@H]1C(=O)O

["7.15% (inactive)", "-13.8% (inactive)", "13% [at 38 µM] (inactive)"]
